# tgt: T1, B7-H3 expressed on the surface of cells (MCF7 cells; B7-H3-expressing cancer cells) (Homo sapiens (Human), UniProt Q5ZPR3 29-534)
# T1 construct: Endogenous B7-H3 on MCF7 cells (DELFIA) and on an unnamed cancer cell line (flow cytometry); also called CD276
# T1 sequence: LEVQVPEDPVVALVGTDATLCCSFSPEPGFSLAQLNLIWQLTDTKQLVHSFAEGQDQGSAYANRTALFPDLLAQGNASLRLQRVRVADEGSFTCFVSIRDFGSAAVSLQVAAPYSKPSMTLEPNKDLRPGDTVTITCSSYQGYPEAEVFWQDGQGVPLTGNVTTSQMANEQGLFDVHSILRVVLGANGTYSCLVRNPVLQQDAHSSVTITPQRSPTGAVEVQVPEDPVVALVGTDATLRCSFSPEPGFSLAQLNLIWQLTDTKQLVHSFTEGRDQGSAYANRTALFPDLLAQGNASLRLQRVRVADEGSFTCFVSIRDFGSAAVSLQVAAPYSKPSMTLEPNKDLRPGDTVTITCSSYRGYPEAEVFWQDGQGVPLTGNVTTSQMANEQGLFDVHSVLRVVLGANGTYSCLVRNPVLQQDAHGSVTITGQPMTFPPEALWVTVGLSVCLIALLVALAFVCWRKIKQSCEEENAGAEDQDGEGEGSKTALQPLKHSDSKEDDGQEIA
# assayNotes: DELFIA competition on live MCF7 cells expressing B7-H3; fixed tracer: europium-chelate miniprotein
Would you mind telling me the reported Ki of each entry?
Don't forget the unit after the number, please.

Lookup: Would you kindly share the measured Ki for CAXEKIAALSEIIWLPCLTYAQIXAFIARLNDDPCQSAEILSEAXELCS (designed binder, (Rme) methylated arginine at 3; (Kme) at 24 and 45; N-terminal Biotin-PEG4; C-terminal NH2; two disulfide bridges among Cys1, Cys17, Cys35, Cys48) [Compound C316] ?
Found: 0.873 nM

Lookup: # repeat for CAREKIAALSEIIWLPCLTYAQIXAFIAALNDDPCQSANILSEAXELCS (designed binder, (Kme) monomethyllysine at 24 and 45; N-terminal Biotin-PEG4; C-terminal NH2; two disulfide bridges among Cys1, Cys17, Cys35, Cys48) [Compound C302]
Found: 1.34 nM

Lookup: # repeat for CAXEKIAALSEIIWLPCLTYAQIXAFIAXLNXDPCQSSEILSEAXELCS (designed binder, (Kme3) at 3; (Kme) at 24, 29, 32 and 45; N-terminal Biotin-PEG4; C-terminal NH2; two disulfide bridges among Cys1, Cys17, Cys35, Cys48) [Compound C308]
Found: 0.872 nM

Lookup: # repeat for CAXEKIAALSEIIWLPCLTYAQIXAFIXALNDDPCQSSEILSEAXELCS (designed binder, (Kme3) at 3; (Kme) at 24, 28 and 45; N-terminal Biotin-PEG4; C-terminal NH2; two disulfide bridges among Cys1, Cys17, Cys35, Cys48) [Compound C306]
Found: 1.24 nM

Lookup: # repeat for CAXEKIAALSEIIWLPCLTYAQIXAFIAALNDDPCQSSEILSEAXELCS (designed binder, (Kme3) at 3; (Kme) at 24 and 45; N-terminal Biotin-PEG4; C-terminal NH2; two disulfide bridges among Cys1, Cys17, Cys35, Cys48) [Compound C304]
Found: 2.24 nM

Lookup: # repeat for CAXEKIAALSEIIWLPCLTYAQIXAFIAALNDDPCQSSEILSEAKELCS (designed binder, (Kme3) trimethyllysine at 3; (Kme2) dimethyllysine at 24; N-terminal Biotin-PEG4; C-terminal NH2; two disulfide bridges among Cys1, Cys17, Cys35, Cys48, also called C298) [Compound C234]
Found: 1.72 nM

Lookup: # repeat for CAXEKIAALSXIIWLPCLTYAQIXAFIAALNDDPCNSSEILSEAXELCS (designed binder, (Kme3) at 3; (E(CO-)) at 11 and (K(NH-)) at 45 joined by a lactam bridge; (Kme) at 24; N-terminal Biotin-PEG4; C-terminal NH2; two disulfide bridges, Three constraints (two disulfide bridges, one lactam bridge)) [Compound C608]
Found: 3.58 nM

Lookup: # repeat for CAXEKIAALSEIIWLPCLNYAQIXAFIAALNDDPCQSSEILSEAXELCS (designed binder, (Kme3) at 3; (Kme) at 24 and 45; N-terminal Biotin-PEG4; C-terminal NH2; two disulfide bridges among Cys1, Cys17, Cys35, Cys48) [Compound C310]
Found: 0.886 nM

Lookup: # repeat for CAXEKIAALSEIIWLPCLTYAQIXAFIAXLNXDPCQSSEILSEAXELCS (designed binder, (Kme3) at 3; (Kme2) at 24; (Kme) at 29 and 45; (Cit) citrulline at 32; N-terminal Biotin-PEG4; C-terminal NH2; two disulfide bridges among Cys1, Cys17, Cys35, Cys48) [Compound C318]
Found: 1.24 nM

Lookup: # repeat for CAXEKIAALSEIIWLPCLTYAQIXAFIAALNDDPCNSSEILSEAXELCS (designed binder, (Kme3) at 3; (Kme) at 24 and 45; N-terminal Biotin-PEG4; C-terminal NH2; two disulfide bridges among Cys1, Cys17, Cys35, Cys48) [Compound C312]
Found: 1.01 nM

Lookup: # repeat for CAREKIAALSEIIWLPCLTYAQIXAFIAALNDDPCQSAEILSEAKELCS (designed binder, (Kme2) at 24; N-terminal Biotin-PEG4; C-terminal NH2; two disulfide bridges among Cys1, Cys17, Cys35, Cys48) [Compound C300]
Found: 1.91 nM
